Values from patent US4567165A

test: Acute toxicity, intravenous, in mice; details: mouse, in vivo, mice (ICR, adult female), single administration in saline
property-name: LD50

>  <molecule>
CNCC1CCC(N)C(OC2C(N)CCC(N(C)C(=O)CN)C2O)O1 (stereo not shown)

>  <val>
100 to 200 mg/kg

$$$$
